Each recorded value in this set is attributed to patent US20250270343A1.

Reported values of Kd for individual entries
- target_under_test: T1, soluble mouse GPNMB (recombinant extracellular domain) (mouse, UniProt Q99P91 23-502)
- T1 construct: also called moGPNMB; not shown: C-terminal polyhistidine or Avi-His tag
- T1 sequence: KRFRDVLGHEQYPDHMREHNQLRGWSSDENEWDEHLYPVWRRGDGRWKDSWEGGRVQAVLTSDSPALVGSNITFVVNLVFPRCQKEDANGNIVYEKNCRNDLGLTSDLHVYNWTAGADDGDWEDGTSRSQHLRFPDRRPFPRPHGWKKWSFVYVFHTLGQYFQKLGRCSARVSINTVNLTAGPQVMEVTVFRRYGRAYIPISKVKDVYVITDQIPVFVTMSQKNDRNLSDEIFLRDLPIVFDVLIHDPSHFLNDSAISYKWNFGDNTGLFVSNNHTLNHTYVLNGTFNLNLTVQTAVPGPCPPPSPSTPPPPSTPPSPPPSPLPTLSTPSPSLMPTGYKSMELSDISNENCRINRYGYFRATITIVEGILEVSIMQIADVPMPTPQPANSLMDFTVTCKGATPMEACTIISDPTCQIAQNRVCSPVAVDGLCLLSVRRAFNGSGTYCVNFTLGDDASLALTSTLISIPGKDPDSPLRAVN
- assay_info: SPR Biacore, IgG captured
Number in nM, nothing else.

{"columns": ["binder", "scale_unit", "reported_value"],
 "data": [
  ["anti-GPNMB antibody GPN-85 (antibody, V domains shown) VH: QVQLQESGPGLVKPSETLSLTCTVSGISITTGNYRWSWIRQPPGKGLEWIGYIDYSGTITYNPSLKQRVTITRDTSKNQFSLELSSVTAADTAVYYCARDLTHWYFDVWGQGTLVTVSS VL: DIVMTQSPDSLAVSLGERATINCKSSRSVDYFGIGFLNWYQQKPGQPPKLLIYATSHQGSGVPDRFSGSGSGTDFTLTISSLQAEDVAVYYCQQQKEVPPTFGGGTKVEIK", "nM", 0.5],
  ["anti-GPNMB antibody GPN-86 (antibody, V domains shown) VH: QVQLQESGPGLVKPSETLSLTCTVSGISITTGNYRWSWIRQPPGKGLEWIGYIDYSGTITYNPSLKSRVTITRDTSKNQFSLELSSVTAADTAVYYCARDLTHWYFDVWGQGTLVTVSS VL: DIVMTQSPDSLAVSLGERATINCKSSRSVDYYGIGFLNWYQQKPGQPPKLLIYATSKQGSGVPDRFSGSGSGTDFTLTISSLQAEDVAVYYCQQQKEVPPTFGGGTKVEIK", "nM", 1.2],
  ["anti-GPNMB antibody GPN-91 (antibody, V domains shown) VH: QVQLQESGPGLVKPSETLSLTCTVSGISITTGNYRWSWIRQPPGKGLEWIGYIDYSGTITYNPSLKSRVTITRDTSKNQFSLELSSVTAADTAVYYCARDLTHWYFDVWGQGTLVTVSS VL: DIVMTQSPDSLAVSLGERATINCKSSRSVDYYGIGFLNWYQQKPGQPPKLLIYATSHQGSGVPDRFSGSGSGTDFTLTISSLQAEDVAVYYCQQQKERPPTFGGGTKVEIK", "nM", 1.1],
  ["anti-GPNMB antibody GPN-88 (antibody, V domains shown) VH: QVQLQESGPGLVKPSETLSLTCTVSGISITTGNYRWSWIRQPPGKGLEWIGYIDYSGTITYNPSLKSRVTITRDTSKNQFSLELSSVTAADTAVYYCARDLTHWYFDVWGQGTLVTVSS VL: DIVMTQSPDSLAVSLGERATINCKSSRSVDYYGIGFLNWYQQKPGQPPKLLIYATSHQGSGVPDRFSGSGSGTDFTLTISSLQAEDVAVYYCQQQKHVPPTFGGGTKVEIK", "nM", 1.1]
]}

Read the next record carefully.
Which Kd value is on record for anti-GPNMB antibody GPN-82 (antibody, V domains shown) VH: QVQLQESGPGLVKPSETLSLTCTVSGISITTGNYRWSWIRQPPGKGLEWIGYIYYSGTIIYNPSLKSRVTITRDTSKNQFSLELSSVTAADTAVYYCARDLTHWYFDVWGQGTLVTVSS VL: DIVMTQSPDSLAVSLGERATINCKSSRSVDYYGIGFLNWYQQKPGQPPKLLIYATSTQGSGVPDRFSGSGSGTDFTLTISSLQAEDVAVYYCQQQKEVPPTFGGGTKVEIK ?
2.6
